System: IL-1b
Test: Mouse BMDM IL-1b Assay
Format: cell-based
Conditions: Macrophage; mouse bone marrow derived macrophages (C57BL6); 200 ng/mL LPS 3 h, compound 30 min, 5 mM ATP 45 min; IL-1b ELISA of supernatant
pIC50: −log10 of the molar value.
# pIC50 annotations
outcome.measure: pIC50

INSERT INTO measurements (compound, measurement) VALUES
  ('O=C(Nc1c2c(c(Br)c3c1CCC3)CCC2)NS(=O)(=O)c1cc2c(o1)CCC/C2=N/O', '6.00 to 7.00'),
  ('CN1CCc2oc(S(=O)(=O)NC(=O)Nc3c4c(cc5c3CCC5)CCC4)cc2C1', '> 7.00'),
  ('CC(C)c1ccc(Cl)c(C(C)C)c1NC(=O)NS(=O)(=O)c1cc2c(o1)CCC/C2=N\O', '6.00 to 7.00'),
  ('CC(C)c1cc(C#N)cc(C(C)C)c1NC(=O)NS(=O)(=O)c1cc2c(o1)CCCC2O (centres unmarked)', '6.00 to 7.00'),
  ('CC1(C)CCc2oc(S(=O)(=O)NC(=O)Nc3c4c(cc5c3CCC5)CCC4)cc2C1(C)O (centres unmarked)', '> 7.00'),
  ('CC1CC(=O)c2cc(S(=O)(=O)NC(=O)Nc3c4c(cc5c3CCC5)CCC4)oc2C1 (centres unmarked)', '6.00 to 7.00'),
  ('CC(C)c1ccc(Cl)c(C(C)C)c1NC(=O)NS(=O)(=O)c1cc2c(o1)CCCC2(C)O (centres unmarked)', '6.00 to 7.00'),
  ('CC(C)c1cc(Cl)cc(C(C)C)c1NC(=O)NS(=O)(=O)c1cc2c(o1)CCCCC2(C)O (centres unmarked)', '> 7.00');

###

System: IL-1b
Experiment: Mouse BMDM IL-1b Assay
Format: cell-based
Details: Macrophage; mouse bone marrow derived macrophages (C57BL6); 200 ng/mL LPS 3 h, compound 30 min, 5 mM ATP 45 min; IL-1b ELISA of supernatant
Description: Example 20: Mouse BMDM IL-1b Assay Mouse bone marrow cells from C57BL6 tibia and femur were culture in complete Isocov's Media supplemented with 20 ng/mL MCSF (BMDM media) at a density of 50 million cells/15 cm Petri dish. Fresh media was changed every 3 days, and bone marrow derived macrophages were collected, washed, and counted on day 7. Cells were seeded into 96 well plates at a density of 5×10^4 cells per well in 100 uL of BMDM media and cultured overnight. […]
pIC50: −log10 of the molar value.
# pIC50 annotations
outcome.measure: pIC50

INSERT INTO results (compound, measurement) VALUES
  ('O=C(Nc1c2c(c(F)c3c1CCC3)CCC2)NS(=O)(=O)c1cc2c(o1)CCC/C2=N/O [Compound 89]', '> 7.00'),
  ('O=C(Nc1c2c(c(F)c3c1CCC3)CCC2)NS(=O)(=O)c1cc2c(o1)CCCC2O (stereo not shown) [Compound 46]', '> 7.00'),
  ('CC1(O)CCCc2oc(S(=O)(=O)NC(=O)Nc3c4c(c(Cl)c5c3CCC5)CCC4)cc21 (stereo not shown) [Compound 44]', '> 7.00'),
  ('O=C(Nc1c2c(c(Br)c3c1CCC3)CCC2)NS(=O)(=O)c1cc2c(o1)CCCC2O (stereo not shown) [Compound 39]', '> 7.00'),
  ('O=C(Nc1c2c(cc3c1CCC3)CCC2)NS(=O)(=O)c1cc2c(o1)CCCC2(O)C(F)(F)F (stereo not shown) [Compound 56]', '> 7.00'),
  ('CC1Cc2oc(S(=O)(=O)NC(=O)Nc3c4c(cc5c3CCC5)CCC4)cc2C(O)C1 (stereo not shown) [Compound 18]', '6.00 to 7.00'),
  ('CC(C)C1Cc2oc(S(=O)(=O)NC(=O)Nc3c4c(cc5c3CCC5)CCC4)cc2C(C)(O)C1 (stereo not shown) [Compound 27]', '> 7.00'),
  ('CC1(O)CCCc2oc(S(=O)(=O)NC(=O)Nc3c4c(c(C#N)c5c3CCC5)CCC4)cc21 (stereo not shown) [Compound 53]', '6.00 to 7.00'),
  ('CCOC(=O)C#CC1(O)CCCc2oc(S(=O)(=O)NC(=O)Nc3c4c(cc5c3CCC5)CCC4)cc21 (stereo not shown) [Compound 105]', '6.00 to 7.00'),
  ('CC1(O)CCCCc2oc(S(=O)(=O)NC(=O)Nc3c4c(c(Br)c5c3CCC5)CCC4)cc21 (stereo not shown) [Compound 108]', '> 7.00'),
  ('CC(C)c1ccc(F)c(C(C)C)c1NC(=O)NS(=O)(=O)c1cc2c(o1)CCCCC2(C)O (stereo not shown) [Compound 110]', '6.00 to 7.00'),
  ('C=CCC1(O)c2cc(S(=O)(=O)NC(=O)Nc3c4c(cc5c3CCC5)CCC4)oc2CCC1(C)C (stereo not shown) [Compound 88]', '> 7.00'),
  ('CN1CCc2sc(S(=O)(=O)NC(=O)Nc3c4c(cc5c3CCC5)CCC4)cc2C1 [Compound 113]', '> 7.00'),
  ('O=C(Nc1c2c(cc3c1CCC3)CCC2)NS(=O)(=O)c1cc2c(s1)CCCC2O (stereo not shown) [Compound 124]', '> 7.00'),
  ('CC(C)c1cc(F)cc(C(C)C)c1NC(=O)NS(=O)(=O)c1cc2c(o1)CCC/C2=N/O [Compound 85]', '5.00 to 6.00'),
  ('CC(C)c1cccc(C(C)C)c1CC(=O)NS(=O)(=O)c1cc2c(o1)CCC(C)(C)C2O (stereo not shown) [Compound 74]', '5.00 to 6.00');

###

Test system: IL-1b
Assay: Mouse BMDM IL-1b Assay
Type: cell-based
Conditions: Macrophage; mouse bone marrow derived macrophages (C57BL6); 200 ng/mL LPS 3 h, compound 30 min, 5 mM ATP 45 min; IL-1b ELISA of supernatant
Experimental: Example 20: Mouse BMDM IL-1b Assay Mouse bone marrow cells from C57BL6 tibia and femur were culture in complete Isocov's Media supplemented with 20 ng/mL MCSF (BMDM media) at a density of 50 million cells/15 cm Petri dish. Fresh media was changed every 3 days, and bone marrow derived macrophages were collected, washed, and counted on day 7. Cells were seeded into 96 well plates at a density of 5×10^4 cells per well in 100 uL of BMDM media and cultured overnight. […]
outcome.measure: IC50

INSERT INTO measurements (compound, outcome_measure, measurement) VALUES
  ('CN1CCc2sc(S(=O)(=O)NC(=O)Nc3c4c(cc5c3CCC5)CCC4)cc2C1=O', 'IC50', '100 to 1000 nM'),
  ('CC(C)c1cc(Cl)cc(C(C)C)c1NC(=O)NS(=O)(=O)c1cc2c(o1)CCCC2(C)O (centres unmarked)', 'IC50', '< 100 nM'),
  ('CC(C)c1cc(Cl)cc(C(C)C)c1NC(=O)NS(=O)(=O)c1cc2c(o1)CCC/C2=N/O', 'IC50', '100 to 1000 nM'),
  ('CC1Cc2oc(S(=O)(=O)NC(=O)Nc3c4c(cc5c3CCC5)CCC4)cc2C(C)(O)C1 (centres unmarked)', 'IC50', '< 100 nM'),
  ('CC1(C)Cc2oc(S(=O)(=O)NC(=O)Nc3c4c(cc5c3CCC5)CCC4)cc2C(O)C1 (centres unmarked)', 'IC50', '< 100 nM'),
  ('CC(C)c1ccc(Cl)c(C(C)C)c1NC(=O)NS(=O)(=O)c1cc2c(o1)CCCCC2(C)O (centres unmarked)', 'IC50', '100 to 1000 nM'),
  ('CC(C)c1cc(Cl)cc(C(C)C)c1NC(=O)NS(=O)(=O)c1cc2c(o1)CCC/C2=N\O', 'IC50', '1000 to 10000 nM'),
  ('CC1(C)CCc2oc(S(=O)(=O)NC(=O)Nc3c4c(cc5c3CCC5)CCC4)cc2C1O (centres unmarked)', 'IC50', '< 100 nM');

Taken from patent US12466800B2.
